# Test system: HMPV clinical isolate TN/1501/A1
# Experiment description: HMPV antiviral assay Method-B (clinical isolate TN/1501/A1 in LLC-MK2 cells, ATP-Lite readout)
# Assay type: cell-based, Human metapneumovirus (HMPV)
# Recorded conditions: human metapneumovirus, LLC-MK2, 144 h, hMPV WT1501 (clinical isolate TN/1501/A1), 6 days
# Protocol: In vitro HMPV antiviral activity was evaluated using the clinical isolate TN/1501/A1 and LLC-MK2 cells (ATCC #CCL-7), an immortalized kidney epithelial cell line from Macaca mulatta. […] The test compounds were assessed in duplicate at a top concentration of 10 μM followed by 3-fold serial dilutions to give a total of 10 concentration points. […] Cells were counted and seeded at a density of 5,000 cells/well, 12.5 μL/well. […]
pEC50: −log10 of the molar value.
Known pEC50 of a selection of compounds

{"columns": ["Smiles entry", "Data value"],
 "data": [
  ["C[C@]1(C(N)=O)COc2c1cc([C@@](O)(CNC(=O)c1cc(OCC3CC3)c3nn(C4(F)CC4)cc3c1)C(F)(F)F)nc2-c1csc2c(F)cccc12", "> 6.30"]
]}

Any idea what its pEC50 is? The compound is COc1cc(C(=O)NC[C@](O)(c2cc3c(c(-c4cc(Cl)ccc4F)n2)OC[C@]3(C)C(N)=O)C2(F)CC2)cc2cn(C3CC3)nc12
> 6.30

Further, for C[C@]1(C(N)=O)COc2c1cc([C@@](O)(CNC(=O)c1cc(Cl)c3nn(C4CC4)cc3c1)C(F)(F)F)nc2-c1cccc(F)c1Cl ?
> 6.30

Further, for [2H]C([2H])([2H])[C@](O)(CNC(=O)c1cc(OC(F)F)c2ncc(C)cc2c1)c1cc2c(c(-c3ccc(F)cc3)n1)OC[C@]2(C)C(N)=O ?
< 6.30

Further, for Cc1nc2c(OC3CC3)cc(C(=O)NC[C@](O)(c3cc4c(c(-c5ccc(F)cc5)n3)OC[C@]4(C)C(N)=O)C3(F)CC3)cc2cc1Cl ?
> 6.30

Further, for COc1cc(C(=O)NC[C@](O)(c2cc3c(c(-c4ccc(F)c(C(F)(F)F)c4)n2)OC[C@]3(C)C(N)=O)C2CC2)cc2cn(C3CC3)nc12 ?
> 6.30

* * *

# System: HMPV clinical isolate TN/1501/A1
# Experiment description: HMPV antiviral assay Method-B (clinical isolate TN/1501/A1 in LLC-MK2 cells, ATP-Lite readout)
# Format: cell-based, Human metapneumovirus (HMPV)
# Recorded conditions: human metapneumovirus, LLC-MK2, 144 h, hMPV WT1501 (clinical isolate TN/1501/A1), 6 days
Observation type: EC50

Any idea what its EC50 is? The compound is C[C@]1(C(N)=O)COc2c1cc([C@@](O)(CNC(=O)c1cc(Cl)c3nn(C4CC4)cc3c1)C(F)(F)F)nc2-c1ccc2c(c1)OC(F)(F)O2
< 0.5 µM

Further, for COc1cc(C(=O)NC[C@](O)(c2cc3c(c(-c4ccc(F)cc4)n2)OC[C@]3(C)C(N)=O)C2CC2)cc2sc(C)nc12 ?
< 0.5 µM

Further, for COc1cc(C(=O)NC[C@](O)(c2cc3c(c(-c4ccc(F)c(Cl)c4F)n2)OC[C@]3(C)C(N)=O)C2(F)CC2)cc2cc(Br)cnc12 ?
< 0.5 µM

Further, for Cc1nc2c(OC3CC3)cc(C(=O)NC[C@](O)(c3cc4c(c(-c5ccc(F)c(F)c5F)n3)OC[C@]4(C)C(N)=O)C(F)(F)F)cc2cc1Cl ?
< 0.5 µM

Further, for COc1cc(C(=O)NC[C@](O)(c2cc3c(c(-c4csc5c(F)cccc45)n2)OC[C@]3(C)C(N)=O)C(F)(F)F)cc2cn(C(F)F)nc12 ?
< 0.5 µM

Further, for C[C@]1(C(N)=O)COc2c1cc([C@@](O)(CNC(=O)c1cc(Cl)c3nn(C4CC4)cc3c1)C1CC1)nc2-c1cc(Cl)c(F)cc1F ?
< 0.5 µM

Further, for COc1cc(C(=O)NC[C@](O)(c2cc3c(c(-c4cc(Cl)c(F)cc4F)n2)OC[C@]3(C)C(N)=O)C(F)(F)F)cc2cn(C3CC3)nc12 ?
< 0.5 µM
